- System: Plasmodium berghei
- TEST PROTOCOL: Screen against P. berghei liver stage (PbLuc), transformed with Luciferase, at 10uM
- Type: functional, HepG2
- RECORDED CONDITIONS: tested at 10 uM
The campaign covered roughly 69,000 compounds. About 8,600 (12%) showed an effect of 50% or more. The sample as a whole holds a higher share of strong results than the screen did.
Label TRUE for high-side INHIBITION (at or above 40%) and FALSE for low-side INHIBITION (below it).

COc1c(C2CCCN2C(=O)c2sc(C)nc2C)c(C)nn1C (stereo unspecified)    FALSE
COCc1cccc(NC(=O)NCCCN(C)S(C)(=O)=O)c1    FALSE
N#Cc1ccccc1CN1CCC(c2nccn2CC(N)=O)CC1    FALSE
Cn1cc(CN2CCC3(CC2)CC(c2ccncc2)C(=O)N3)cn1 (stereo unspecified)    FALSE
CCOC(=O)C1(CCOC)CCCN(Cc2nccn2CC)C1 (stereo unspecified)    TRUE
COc1cc(N2CCCn3cnc(COC(C)C)c3C2)ncn1    TRUE

* * *

- Tested on: Plasmodium berghei
- TEST PROTOCOL: Screen against P. berghei liver stage (PbLuc), transformed with Luciferase, at 10uM
- Format: functional, HepG2
- RECORDED CONDITIONS: tested at 10 uM
In all, about 69,000 compounds went through this assay and about 8,600 (12%) showed an effect of 50% or more. Only a selection was taken, and strong results are over-represented in it overall.
MEASURED PARAMETER: INHIBITION

Cc1ccccc1CN1CCC2(COCc3cnc(N(C)C)nc32)C1 (centres undefined)    21.8%
CCCN1CCC(Cc2noc(-c3ncccc3C)n2)CC1    12.9%
Cc1nccn1CCC1CCCCN1C(=O)c1ccc2[nH]nnc2c1 (centres undefined)    -5.29%
CCC(C)NC(=O)c1cncc(Br)c1 (centres undefined)    -76.5%
CCOCC(O)CN1CCN(C(=O)c2ccsc2)CC1 (centres undefined)    43.4%
CCc1ccccc1OCC(=O)N1CCOCC1c1ncon1 (centres undefined)    60.5%
COC(=O)c1cccc(C(=O)N2CCCCC2CCn2ccnc2C)c1 (centres undefined)    17.3%
CCC(CNC(=O)c1ccc(F)cc1F)N1CCc2ccccc2C1 (centres undefined)    64.3%
Cn1cccc1C(CNC(=O)c1ccc(F)cc1F)N1CCCCCC1 (centres undefined)    34.7%
CCCC(NC(=O)c1cc(C)ccc1O)c1nnn[nH]1 (centres undefined)    34.6%
O=C(c1ccsc1)N1CCN(CC(O)c2cccc(F)c2)CC1 (centres undefined)    40.6%
CCN(Cc1cc(Cl)ccc1OC)Cc1nccn1C    15.3%
Cc1nccn1CCC1CCCCN1C(=O)c1ccc(N(C)C)cc1 (centres undefined)    66.9%
Cc1cc(NC(=O)CN2CCN(c3nc(C)cs3)C(C)C2)on1 (centres undefined)    -1.12%
Cc1cc(C)n(CC2CCCN2C(=O)c2cccc3c2OCO3)n1 (centres undefined)    25.15%
CN(C)CCN1CCN(C(=O)c2ccn(C)c(=O)c2)CC1    -7.31%
Cc1nn(CC(=O)NCCc2ccncc2)c(=O)n1Cc1ccccc1    -45%
COCCNC(=O)C[C@@H]1COC[C@H]2CN(CC3CCOCC3)C[C@@H]12    36.7%
CNc1cc(C(=O)N2CCCCC2CCn2ccnc2C)ccn1 (centres undefined)    64.5%
Cc1cnn(CC2CN(Cc3nc(C)c(C)o3)CCO2)c1 (centres undefined)    11.4%
Cc1cc(C)n(CC2CCCN2C(=O)c2ccc3c(c2)OCO3)n1 (centres undefined)    52.1%
CCC(CNC(=O)c1ccccc1OC)N1CCc2ccccc2C1 (centres undefined)    63.3%
CC(C)c1ncncc1C(=O)NCCN1CCCCC1C (centres undefined)    36.9%
Cc1cc(NC(=O)C(C)Oc2ccc3c(c2)OCO3)no1 (centres undefined)    14.6%
Cc1nccn1CCC1CCCCN1C(=O)c1ccc2nonc2c1 (centres undefined)    -17.5%
O=C(NCc1ccco1)[C@@H]1CC[C@@H]2[C@@H](CCN2Cc2ccc(F)cc2)O1    5.87%
Cc1cccc(-c2nc(CN3CCc4cncnc4C3)no2)c1    -12.2%
COc1cccc(C(O)CN2CCN(C(=O)CCC(C)C)CC2)c1 (centres undefined)    55.4%
Cc1noc([C@H]2C[C@@H]3CCN(CC4CC4)C[C@H]3O2)n1    -5.29%
CCc1ccc(CCC(=O)N2CCOCC2c2ncon2)cc1 (centres undefined)    27.9%
CCN(Cc1ccccn1)Cc1cc(Cl)ccc1OC    39.1%
c1cncc(OCC2CN(Cc3nccs3)Cc3nccn3C2)c1 (centres undefined)    8.52%
O=C(NCC(O)c1ccc(F)cc1F)c1ccccc1F (centres undefined)    -57.9%
Cc1cc(C)c(CNC(=O)NCC(O)c2ccc(Cl)cc2)c(=O)[nH]1 (centres undefined)    29.2%
CC(C)c1noc(C(C)N2CCN(Cc3cccnc3)CC2)n1 (centres undefined)    15.5%
CC(C)c1ccc(OCC(=O)N2CCOCC2c2ncon2)cc1 (centres undefined)    -50.8%
Cn1ncc2c(=O)[nH]c(CN3CCCC3CC(C)(C)C)nc21 (centres undefined)    19.6%
Cc1cnn(CC2CCCCN2C(=O)c2ccc3c(c2)COC3)c1 (centres undefined)    -18%
Cc1cc(C)n(CC2CCCN2C(=O)c2ccc3[nH]c(=O)[nH]c3c2)n1 (centres undefined)    16.3%
CCC(CNC(=O)c1ccccn1)N1CCc2ccccc2C1 (centres undefined)    40.5%
Cc1cc(C)n(CC2CCCCN2C(=O)c2ccc(C(N)=O)cc2)n1 (centres undefined)    -10.6%
Cc1cccc(C)c1OCC(=O)N1CCOCC1c1ncon1 (centres undefined)    -53.2%
CCC(CNC(=O)c1ccco1)N1CCc2ccccc2C1 (centres undefined)    51.4%
COc1ccccc1C(=O)NCC(c1cccn1C)N1CCOCC1 (centres undefined)    44.9%

The values you see were collected from ChEMBL document CHEMBL4513216.
